// data source = ChEMBL document CHEMBL3988442

# TESTED_TARGET: Protein translocase subunit SecA (Escherichia coli (strain K12))
# TEST: Assay to Identify E. coli SecA ATPase Inhibitors
# Format: functional
# Set-up: scale not given: direction of the effect not stated beside the values
# CONDITION: 30 µM
Measured potencies and affinities stand elsewhere.

COMPOUND: CCN1CCN(C2CCN(Cc3noc(C)n3)CC2)C1=O
UNIT_OF_MEASUREMENT: %
Percent Effect: -5.08

COMPOUND: Cc1cnc2n(c1=O)C(CC(=O)NCc1cc(-c3cccs3)on1)CS2 (stereo unspecified)
UNIT_OF_MEASUREMENT: %
Percent Effect: -0.436

COMPOUND: CCN(CC(=O)NC(C)C)S(=O)(=O)N1CCC(C)C1 (stereo unspecified)
UNIT_OF_MEASUREMENT: %
Percent Effect: -2.1

COMPOUND: CCCS(=O)(=O)N1C[C@H]2OC(=O)N(CCc3cccc(Cl)c3)[C@H]2C1
UNIT_OF_MEASUREMENT: %
Percent Effect: -5.06

COMPOUND: CC(C)CCn1c(=O)nc2n1C(=O)N(c1ccc(F)cc1)C2
UNIT_OF_MEASUREMENT: %
Percent Effect: -5.09

COMPOUND: OCCn1nccc1C1CCN(CCCOc2ccc(F)cc2)CC1
UNIT_OF_MEASUREMENT: %
Percent Effect: -5.89

COMPOUND: CC(C)Nc1nc2c(cc1C(=O)NCC1CC1)CCNCC2
UNIT_OF_MEASUREMENT: %
Percent Effect: -1.6

COMPOUND: Cc1noc([C@@]23CCO[C@@H]2CCN(CC2CCOCC2)C3)n1
UNIT_OF_MEASUREMENT: %
Percent Effect: 2.95

COMPOUND: CCn1ncc2c1C(COCC1CC1)CN(S(=O)(=O)N(C)C)C2 (stereo unspecified)
UNIT_OF_MEASUREMENT: %
Percent Effect: 0.0926

COMPOUND: Cc1cc(CN2CC[C@H]3C(=O)N(c4ccccc4)CCO[C@H]3C2)no1
UNIT_OF_MEASUREMENT: %
Percent Effect: -3.31

COMPOUND: CNC(=O)CSc1cnn(CC(=O)Nc2cccc(Cl)c2C)c(=O)c1Cl
UNIT_OF_MEASUREMENT: %
Percent Effect: -2.17

* * *

Catalogue of molecules with associated Percent Effect
# Tested on: Trypanosoma cruzi
# TEST: Trypanosoma cruzi phosphomannomutase and mannose-1-phosphate guanylyltransferase assay
# Type: functional
# Parameters: scale not given: direction of the effect not stated beside the values
# CONDITION: 10 µM

MOLECULE: CCc1noc(CN2CCCN(C(N)=O)CC2)n1
Percent Effect (%): -6.7

MOLECULE: Cc1cnc(CN(C)C2CCN(CC(=O)N(C)c3nccs3)C2)o1 (stereo unspecified)
Percent Effect (%): -8.4

MOLECULE: COc1ccc(OCCCNC(=O)NCc2csc(C)n2)cc1
Percent Effect (%): 0.65

MOLECULE: CC(C)c1nc(C(=O)N2CCOCC2CC(=O)c2ccco2)c[nH]1 (stereo unspecified)
Percent Effect (%): 0.682

MOLECULE: COc1ccc(NC(=O)NC(C)(C)c2noc(C)n2)cc1
Percent Effect (%): 0.979

MOLECULE: CCn1c(C)nnc1CN(C)C1CCN(CCn2cccn2)C1 (stereo unspecified)
Percent Effect (%): -0.686

* * *

Catalogue of compounds with associated Percent Effect
# TESTED_TARGET: Tyrosyl-tRNA synthetase, putative (Trypanosoma cruzi (strain CL Brener)) (UniProt Q4DSP6)
# Sequence (Q4DSP6 as listed by the source): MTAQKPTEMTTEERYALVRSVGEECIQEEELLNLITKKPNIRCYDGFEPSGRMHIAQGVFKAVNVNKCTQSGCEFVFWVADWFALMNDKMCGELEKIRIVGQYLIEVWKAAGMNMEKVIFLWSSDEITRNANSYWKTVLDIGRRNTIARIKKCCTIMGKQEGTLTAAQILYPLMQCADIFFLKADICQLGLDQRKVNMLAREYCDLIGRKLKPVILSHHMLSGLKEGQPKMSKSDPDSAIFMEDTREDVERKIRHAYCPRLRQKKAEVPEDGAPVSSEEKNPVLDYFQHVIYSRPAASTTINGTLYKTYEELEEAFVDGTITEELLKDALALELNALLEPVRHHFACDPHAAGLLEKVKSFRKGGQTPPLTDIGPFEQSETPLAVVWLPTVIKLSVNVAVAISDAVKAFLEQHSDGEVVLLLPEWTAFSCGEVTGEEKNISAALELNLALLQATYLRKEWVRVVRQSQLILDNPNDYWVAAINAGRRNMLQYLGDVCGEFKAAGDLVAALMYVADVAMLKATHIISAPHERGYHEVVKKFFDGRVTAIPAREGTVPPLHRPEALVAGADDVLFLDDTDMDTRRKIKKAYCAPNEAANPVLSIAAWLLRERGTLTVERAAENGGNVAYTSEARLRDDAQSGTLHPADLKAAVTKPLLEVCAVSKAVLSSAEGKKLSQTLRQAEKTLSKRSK
# TEST: Trypanosoma cruzi tyrosyl tRNA synthetase (TcYRS) SOP
# Type: functional
# Set-up: scale not given: direction of the effect not stated beside the values
# CONDITION: 30 µM

COMPOUND: Cc1cc(C)c(CNC(=O)N2CCN(c3ncccn3)CC2)c(=O)[nH]1
Percent Effect, %: 7.32
--
COMPOUND: CNC(=O)NC(=O)CN1CCC(c2cccc(F)c2)C1 (centres undefined)
Percent Effect, %: 4.88
--
COMPOUND: Cn1ccc(C(=O)N2CCCC(n3cncn3)C2)cc1=O (centres undefined)
Percent Effect, %: 9.41
--
COMPOUND: O=C(C1CCCc2[nH]ncc21)N1CCCC1 (centres undefined)
Percent Effect, %: -6.17
--
COMPOUND: O=C(CCNc1ncccn1)NCCc1ccn(-c2ccccc2)n1
Percent Effect, %: 20.2
--
COMPOUND: Cc1nc(C2CCCN(C(=O)Cn3ccccc3=O)C2)no1 (centres undefined)
Percent Effect, %: 4.88
--
COMPOUND: CCC(=O)N1Cc2nccn2CC(CN(C)Cc2cccnc2)C1 (centres undefined)
Percent Effect, %: 8.97
--
COMPOUND: CNC(=O)c1ccc(CN2CCC(N(C)Cc3noc(C)n3)C2)cc1 (centres undefined)
Percent Effect, %: 14.1
--
COMPOUND: COc1ccc(C2=CCN(C(=O)C3CC(=O)N(C4CC4)C3)CC2)cc1 (centres undefined)
Percent Effect, %: -6.17
--
COMPOUND: Cc1nc(C)n(C2CCCN(C(=O)c3ccc(NC4CC4)nc3)C2)n1 (centres undefined)
Percent Effect, %: 6.1
--
COMPOUND: CC[C@@H](CO)NC(=O)c1coc(COc2ccc(OC)cc2)n1
Percent Effect, %: 18.5
--
COMPOUND: COc1cc(C)sc1C(=O)N1CCC(Nc2cccnc2)CC1
Percent Effect, %: 11.1
--
COMPOUND: COCCCNC(=O)CN(C)C(=O)c1cc(C)ccc1N(C)C(C)C
Percent Effect, %: 13.4
--
COMPOUND: O=C1N(c2cccc(Cl)c2)Cc2nc(=O)n(Cc3cccc(F)c3)n21
Percent Effect, %: 2.56
--
COMPOUND: CC(=O)N1CCC(C(=O)N(C)[C@@H]2CCC[C@@H](N3CCCC3)[C@@H]2O)CC1
Percent Effect, %: 22.1
--
COMPOUND: O=C(NCCCOCC1CCCO1)c1cccnc1N1CCCC1 (centres undefined)
Percent Effect, %: -3.66
--
COMPOUND: Cc1cc(N(C)C)nc(C2(C)CCCN2C(=O)c2cnccn2)n1 (centres undefined)
Percent Effect, %: 8.97
--
COMPOUND: O=C(Cn1nc(-c2ccc(F)cc2)oc1=O)NCc1ccc(F)cc1
Percent Effect, %: 7.32
--
COMPOUND: CCc1nc(CN2CCCC(N(C)Cc3cnn(C)c3)C2)no1 (centres undefined)
Percent Effect, %: 2.5
--
COMPOUND: O=C(c1cnccn1)N1CCN(Cc2ccncc2)c2ncccc2C1
Percent Effect, %: 2.5
--
COMPOUND: Cc1nn(C)c(C)c1CNC1CCOc2ccccc21 (centres undefined)
Percent Effect, %: 8.64
--
COMPOUND: Cn1cc(NC(=O)Cn2c(CS(C)(=O)=O)nc3ccccc32)cn1
Percent Effect, %: 13
--
COMPOUND: Cn1cc(CN2CCCN(C(=O)c3ccc4c(c3)COC4)CC2)cn1
Percent Effect, %: 11.1
--
COMPOUND: Cc1nc(C)n(CC2CN(CC(=O)Nc3nccs3)CCO2)n1 (centres undefined)
Percent Effect, %: 10.3

* * *

# TESTED_TARGET: Proteasome subunit beta (Trypanosoma cruzi) (UniProt O96673)
# Sequence (O96673 as listed by the source): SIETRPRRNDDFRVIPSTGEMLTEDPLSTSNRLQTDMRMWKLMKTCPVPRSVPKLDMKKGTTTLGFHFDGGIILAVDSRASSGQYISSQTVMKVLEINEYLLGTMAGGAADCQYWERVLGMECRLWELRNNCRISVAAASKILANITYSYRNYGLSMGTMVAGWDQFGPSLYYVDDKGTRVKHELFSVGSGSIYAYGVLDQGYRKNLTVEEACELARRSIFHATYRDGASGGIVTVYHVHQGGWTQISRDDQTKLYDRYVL
# TEST: Trypanosoma cruzi proteasome chymotrypsin-like activity (TcProtChymo) assay. Also: in the data most compounds retested in dose-response had high values.
# Assay type: functional
# Parameters: scale not given: direction of the effect not stated beside the values
# CONDITION: 9.37 µM
Catalogue of compounds with associated Percent Effect

COMPOUND: C1CC(NCc2nc(C3CC3)no2)CN(Cc2noc(C3CC3)n2)C1 (stereo unspecified)
Percent Effect [%]: 11.2
//
COMPOUND: CC(c1ccc(Cl)cc1)N1CCN(CCNS(C)(=O)=O)CC1 (stereo unspecified)
Percent Effect [%]: 10.7
//
COMPOUND: CN(Cc1cn2c(n1)CN(C(=O)CC1CC1)CC2)Cc1ccco1
Percent Effect [%]: -3.44
//
COMPOUND: CN(C)C(=O)CO[C@H]1CN(Cc2ccc(F)cc2)[C@@H]2CCCO[C@H]12
Percent Effect [%]: 15.3
//
COMPOUND: CCn1ncc2c1CCCC2NCc1cc(Cl)c(OC)c(OC)c1 (stereo unspecified)
Percent Effect [%]: -0.901
//
COMPOUND: Cc1noc(-c2ccc(N3CCCC(C(=O)N4CCSCC4)C3)nc2)n1 (stereo unspecified)
Percent Effect [%]: 6.57
//
COMPOUND: CS(=O)(=O)N1CCC(C(=O)NCCNc2ncccn2)CC1
Percent Effect [%]: 14.2
//
COMPOUND: CN(C)[C@@H]1CCN(c2ncccn2)[C@H]1Cc1ccncc1
Percent Effect [%]: 2.5
//
COMPOUND: O=C(CCCOCc1ccccc1)N1CCCC1c1ccccn1 (stereo unspecified)
Percent Effect [%]: 5
//
COMPOUND: CCc1nc(CN2CCCC(NCc3cnn(C(C)(C)C)c3)C2)no1 (stereo unspecified)
Percent Effect [%]: 6.63
//
COMPOUND: Cc1nc(C)n(CC2CCCN(CC(=O)Nc3c(C)n[nH]c3C)C2)n1 (stereo unspecified)
Percent Effect [%]: 8.69
